# System Name: T1, His-tagged human PD-1 ECD (human, UniProt Q15116 25-170)
# T1 construct: bought from Acro Biosystems; not shown: His tag
# T1 sequence (Q15116 25-170): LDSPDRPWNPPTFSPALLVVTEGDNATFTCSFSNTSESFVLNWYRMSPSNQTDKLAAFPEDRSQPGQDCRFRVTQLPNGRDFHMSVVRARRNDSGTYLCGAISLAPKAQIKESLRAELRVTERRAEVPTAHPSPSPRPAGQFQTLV
# Test Method Notes: SPR, IgG captured, monovalent PD-1 ECD analyte
Measured Property: Kd (nM)
Numbers only; they are read as nM.

What measured Kd goes with 12760.15375 (antibody, human IgG1, lambda, L234A L235A, V domains shown, humanized, IgG1 LALA, lambda) VH: EVQLLESGGGLVQPGGSLRLSCAASGFTFSTFNMVWVRQAPGKGLEYVAEISSDGSFTWYATAVKGRATISRDNSKNTVYLQMNSLRAEDTAVYYCAKSDCSSSYYGYSCIGIIDAWGQGTLVTVSS VL: SYELTQDPAVSVALGQTVRITCSGGISDDGSYYYGWFQQKPGQAPVTVIYINDRRPSNIPDRFSGSSSGNTASLTITGAQAEDEADYYCGSYDSSAGVGIFGSGTKVTVLG ?
0.112

What measured Kd goes with 12796.15376 (antibody, human IgG1, lambda, L234A L235A, V domains shown, humanized, IgG1 LALA, lambda) VH: EVQLLESGGGLVQPGGSLRLSCAASGFDFSSYTMQWVRQAPGKGLEWVGVISSTGGSTGYGPAVKGRATISRDNSKNTLYLQMNSLRAEDTAVYYCVKSVSGDAWSVDGLDAWGQGTLVTVSS VL: SYELTQDPAVSVALGQTVRITCSGGGSAYGWYQQKPGQAPVTVIYYNNQRPSDIPDRFSGSSSGNTASLTITGAQAEDEADYYCGSYDSSAVGIFGSGTKVTVLG ?
0.542

What measured Kd goes with 12748.16124 (antibody, human IgG1, lambda, L234A L235A, V domains shown, alternative germline VL variant of 12748.15381; IgG1 LALA, lambda) VH: EVQLLESGGGLVQPGGSLRLSCAASGFTFSDYAMNWVRQAPGKGLEWVAGIGNDGSYTNYGAAVKGRATISRDNSKNTLYLQMNSLRAEDTAVYYCASDIRSRNDCSYFLGGCSSGFIDVWGQGTLVTVSS VL: SYELTQPPSVSVSPGQTARITCSGGSSYSYGWFQQKPGQAPVTVIYESNNRPSDIPERFSGSSSGTTVTLTISGVQAEDEADYYCGNADSSSGIFGSGTKVTVLG ?
0.047

What measured Kd goes with 12748.15381 (antibody, human IgG1, lambda, L234A L235A, V domains shown, humanized, IgG1 LALA, lambda) VH: EVQLLESGGGLVQPGGSLRLSCAASGFTFSDYAMNWVRQAPGKGLEWVAGIGNDGSYTNYGAAVKGRATISRDNSKNTLYLQMNSLRAEDTAVYYCASDIRSRNDCSYFLGGCSSGFIDVWGQGTLVTVSS VL: SYELTQDPAVSVALGQTVRITCSGGSSYSYGWFQQKPGQAPVTVIYESNNRPSDIPDRFSGSSSGNTASLTITGAQAEDEADYYCGNADSSSGIFGSGTKVTVLG ?
0.054
